Provide the reported z-score of each item.
# TEST_METHOD_NOTES: osmotic lysis modulators in infected erythrocytes, primary screen, PSAC antagonist project, cell-based, P. falciparum Indochina, OD700, 3 h (AID 1156)
# TEST_PARAMETERS: higher = more signal, called active from +8 up or from −8 down
Kindly provide the number alone.

Quick one: z-score of C=CCC(OC(C)=O)[C@@H]1[C@@H](N(Cc2ccc(-c3ccccc3)cc2)C(=O)Cc2ccc(OC)cc2)c2cc(OCCCO)ccc2N1C(=O)c1ccc2ccccc2n1 (stereo partly specified) ?
-0.165

Also O=c1cccc(C=Cc2ccccc2)o1 , if possible.
0.488

Also COCCOC(=O)N1C(=O)[C@@]2(c3cc(C#Cc4ccc(OC)cc4)ccc31)[C@H](C(=O)N1CCN(c3ncccn3)CC1)[C@H]1C(=O)O[C@H](c3ccccc3)[C@H](c3ccccc3)N1[C@@H]2c1ccc(O)cc1 , if possible.
-0.119

Also Cc1ccc(F)cc1S(=O)(=O)N[C@@H]1CCN(Cc2ccc(-c3ccccc3)cc2)C1 , if possible.
0.349

Also CC(C)CNC(=O)[C@@]1(c2ccc([N+](=O)[O-])cc2)CC(=O)N(CC23CC4CC(CC(C4)C2)C3)[C@@H]1c1ccc(CO)cc1I , if possible.
2.73

Also Cc1ccc(S[C@]2(C(=O)NCC(C)C)CC(=O)N(Cc3ccccc3)[C@@H]2c2ccc(CO)cc2I)cc1 , if possible.
0.448

Also CC(C)OC(=O)CC(=O)CC(O)c1ccc(C#N)cc1 (stereo unspecified) , if possible.
-0.745

Also CC(C)N1C(=O)[C@@]2(c3ccc([N+](=O)[O-])cc3)CC(=O)N(CC34CC5CC(CC(C5)C3)C4)[C@@H]2c2ccc(CO)cc21 , if possible.
0.0625

Also COCC1=C2[C@@H](CCc3ccccc3)OB(O)C[C@@H]2[C@@H]2C(=O)N(Cc3ccccc3)C(=O)[C@@H]2C1 , if possible.
-0.558

Also Cc1ccc(S[C@]2(C(=O)NCc3ccccc3)CC(=O)N(Cc3ccccc3)[C@@H]2c2ccc(CO)cc2)cc1 , if possible.
-0.376

Also [N-]=[N+]=NCc1ccccc1C[C@@]1(C(=O)NCC(O)CO)N=C(c2ccc(OCCCO)cc2)O[C@@H]1c1ccccc1CN=[N+]=[N-] (stereo partly specified) , if possible.
0.029

Also CN1C(=O)C2C=CC(C(O)c3ccccn3)N(Nc3ccccc3)C2C1=O (stereo unspecified) , if possible.
-0.197

Also COc1ccccc1CN1C(=O)c2ccccc2[C@@H](C(=O)NCCN2CCOCC2)[C@@H]1c1ccc(CO)cc1 , if possible.
1.56

Also CN1C=C(C(=O)OCCS(C)(=O)=O)C(C(=O)OCCS(C)(=O)=O)=CC(CCCO)=CC1C1CC1 (stereo unspecified) , if possible.
0.483

Also COC(=O)[C@@]1(Cc2ccccc2N=[N+]=[N-])COC(c2ccc(OCCCO)cc2)=N1 , if possible.
3.35

Also O=C1C=CC(=O)[C@@H]2CC(COc3ccccc3)=C3[C@@H](CCc4ccccc4)OB(O)C[C@@H]3[C@H]12 , if possible.
-0.0433
